# Assay target: Carboxy-terminal domain RNA polymerase II polypeptide A small phosphatase 1 (Homo sapiens) (UniProt Q9GZU7)
# Sequence (Q9GZU7 76-261 limits assumed): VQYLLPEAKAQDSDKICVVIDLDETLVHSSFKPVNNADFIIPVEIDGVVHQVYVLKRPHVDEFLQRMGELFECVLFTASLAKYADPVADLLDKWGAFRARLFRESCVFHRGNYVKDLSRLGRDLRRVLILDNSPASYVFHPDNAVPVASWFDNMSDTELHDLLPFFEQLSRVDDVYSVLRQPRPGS
# Assay method text: Scp-1 phosphatase inhibitors, primary screen, biochemical, colorimetric, uHTS (AID 493091)
# Setup conditions: Recombinant Scp1, phosphopeptide, malachite green phosphate absorbance; at 20 µM
About 3,000 (0.88%) of roughly 340,000 compounds were called active.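 The calls were made as follows: active = inhibition above about 50% at 20 µM (limit read from the data); inactive = the rest.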 The list comes from a sample in which actives are over-represented; it also holds close analogues and randomly drawn compounds.
// allowed return values: yes = active, no = inactive

# Compound, Assigned category
records = [
    ("CC(C)(C)OC(=O)C1=C(CO)CS[C@@H]2[C@H](NC(=O)Cc3ccccc3)C(=O)N12", "no"),
]

Would you mind telling me which call this test gave `COc1ccc(C(=O)COC(=O)CNC(=O)c2cccs2)cc1Br` ?
no

Given `N#C/C=C/N1CCN(Cc2ccc3c(c2)OCO3)CC1` , state the outcome it received in this test.
no
